FYI, the data here is from patent US20100093811A1.

- Tested on: acute HIV infection of T-lymphoid cells
- assay remarks: Assay for inhibition of HIV replication (spread assay)
- Format: cell-based, HIV-1
- condition set: Human immunodeficiency virus 1, T-lymphoid; read-out: Spread - IC95
Entries and their IC95
# value in nM; strip the unit string

The examples below pair each entry with its known result.
compound	unit abbreviation	IC95
COC(=O)N[C@@H](Cc1ccccc1Cl)C(=O)N[C@@H](C)CCC[C@@H](CO)N(C(C)C)S(=O)(=O)c1ccc(N)cc1 [Example G11]	nM	93
CCC[C@@H](CCC[C@@H](CO)N(CCCF)S(=O)(=O)c1ccc(N)cc1)NC(=O)[C@@H](NC(=O)OC)C(c1ccccc1)c1ccccc1 [Example D13]	nM	213
CC[C@@H](CCC[C@@H](CO)N(CCCF)S(=O)(=O)c1ccc(N)cc1)NC(=O)[C@@H](NC(=O)OC)C(c1ccccc1)c1ccccc1 [Example D15]	nM	39

Would you kindly look at the next entry?
Problem: Entry CCN([C@H](CO)CCC[C@@H](NC(=O)[C@@H](NC(=O)OC)C(c1ccccc1)c1ccccc1)C1CC1)S(=O)(=O)c1ccc(N)cc1 [Example I10] has what IC95?
Result: 105

###

Below: a set of entries, each annotated with reported IC95.
- Test system: acute HIV infection of T-lymphoid cells
- assay remarks: Assay for inhibition of HIV replication (spread assay)
- Format: cell-based, HIV-1
- condition set: Human immunodeficiency virus 1, T-lymphoid; read-out: Spread - IC95
Counter-ions that a name gives are not always drawn.
Entry rule: numbers only, all in nM.

compound	IC95, nM
CC(C)CCN([C@H](CO)CCC[C@@H](NC(=O)[C@@H](N)C(c1ccc(F)cc1)c1ccc(F)cc1)C1CC1)S(=O)(=O)c1ccc([C@H](C)O)cc1 [Example J18, hydrochloride]	8

Problem: Given the compound `CCC[C@@H](CCC[C@@H](CO)N(CCC(C)C)S(=O)(=O)c1ccc(N)cc1)NC(=O)[C@@H](NC(=O)OC)C(c1ccccc1)c1ccccc1` , what is its reported IC95?
Result: 56

Problem: What do you have for `CC[C@@H](CCC[C@@H](CO)N(CCC(C)C)S(=O)(=O)c1ccc(CO)cc1)NC(=O)[C@@H](NC)C(c1ccccc1)c1ccccc1` ?
Result: 6

Problem: Moving on to the next compound: `COC(=O)N[C@H](C(=O)N[C@H](CCC[C@@H](CO)N(CCC(C)C)S(=O)(=O)c1ccc(N)cc1)C(F)(F)F)C(c1ccccc1)c1ccccc1`
Result: 4

Problem: Do the same for `COC(=O)N[C@@H](Cc1ccccc1Cl)C(=O)N[C@H](CCC[C@@H](CO)N(C(C)C)S(=O)(=O)c1ccc(CO)cc1)C1CC1` please
Result: 422

Problem: Similarly, `C#C[C@@H](CCC[C@@H](CO)N(CCC(C)C)S(=O)(=O)c1ccc(CO)cc1)NC(=O)[C@@H](NC(=O)OC)C(c1ccccc1)c1ccccc1` ?
Result: 6

Problem: Here is the next compound: `CC[C@@H](CCC[C@@H](CO)N(CCC(C)C)S(=O)(=O)c1ccc(N)cc1)NC(=O)[C@@H](N)C(c1ccccc1)c1ccccc1`
Result: 15

Problem: One more compound: CC(C)CCN([C@H](CO)CCC[C@@H](NC(=O)[C@@H](N)C(c1ccc(F)cc1)c1ccc(F)cc1)C1CC1)S(=O)(=O)c1ccc(CO)cc1 [Example J17, hydrochloride]
Result: 6
